# SUBJECT OF TEST: Yer184c (UniProt P39961)
# Sequence: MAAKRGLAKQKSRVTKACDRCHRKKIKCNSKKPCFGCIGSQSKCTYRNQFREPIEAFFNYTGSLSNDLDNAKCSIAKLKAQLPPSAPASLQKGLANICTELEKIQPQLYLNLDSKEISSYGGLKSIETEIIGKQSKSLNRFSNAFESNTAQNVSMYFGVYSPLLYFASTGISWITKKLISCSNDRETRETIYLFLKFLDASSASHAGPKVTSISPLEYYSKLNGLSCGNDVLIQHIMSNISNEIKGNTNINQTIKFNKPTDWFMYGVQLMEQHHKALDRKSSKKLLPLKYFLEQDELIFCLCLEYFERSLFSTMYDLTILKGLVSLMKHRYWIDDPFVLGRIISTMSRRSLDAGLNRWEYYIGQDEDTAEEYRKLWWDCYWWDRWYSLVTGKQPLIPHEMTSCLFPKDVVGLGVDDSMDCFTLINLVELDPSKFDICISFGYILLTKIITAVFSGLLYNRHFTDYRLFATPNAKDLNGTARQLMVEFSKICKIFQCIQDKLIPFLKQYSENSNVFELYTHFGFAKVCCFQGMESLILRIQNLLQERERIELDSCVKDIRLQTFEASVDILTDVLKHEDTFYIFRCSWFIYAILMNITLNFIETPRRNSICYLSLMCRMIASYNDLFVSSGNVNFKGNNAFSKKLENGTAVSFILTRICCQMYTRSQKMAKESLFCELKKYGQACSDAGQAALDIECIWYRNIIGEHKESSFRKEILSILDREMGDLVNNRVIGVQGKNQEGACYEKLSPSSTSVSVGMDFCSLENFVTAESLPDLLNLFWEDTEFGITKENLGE
# ASSAY OVERVIEW: PBM E-score (8-mer binding enrichment) (E-score (-0.5 to 0.5)); higher = stronger / more preferred TF binding
# MEASUREMENT SETUP: protein concentration: 100 nM; construct: GST-full length
The full ranking holds about 33,000 sequences; the median of “E-score (-0.5 to 0.5)” is about -0.016, and the highest 2% start at about 0.3. The entries come from a sample that favours the highest values as a whole.
Recorded PBM E-score by entry
MEASURED METRIC: PBM E-score

In [3]: df
Out[3]:
    seq_string           subject_of_test  measured_metric   number
 0    ACGCGGTA  Yer184c (UniProt P39961)      PBM E-score   -0.105
 1    TTAATAAA  Yer184c (UniProt P39961)      PBM E-score    0.328
 2    ACGTTAGT  Yer184c (UniProt P39961)      PBM E-score  -0.0893
 3    CCTTACCG  Yer184c (UniProt P39961)      PBM E-score    0.114
 4    CATGAGAC  Yer184c (UniProt P39961)      PBM E-score  -0.0666
 5    GTGCCGGA  Yer184c (UniProt P39961)      PBM E-score    0.305
 6    CTAATATA  Yer184c (UniProt P39961)      PBM E-score    0.118
 7    ATCCCATG  Yer184c (UniProt P39961)      PBM E-score   -0.297
 8    ACTCTCGC  Yer184c (UniProt P39961)      PBM E-score   -0.169
 9    CGGAAAAA  Yer184c (UniProt P39961)      PBM E-score    0.394
10    CGGAAACC  Yer184c (UniProt P39961)      PBM E-score    0.188
11    ACTTGCCG  Yer184c (UniProt P39961)      PBM E-score    0.142
12    ATTCTCGG  Yer184c (UniProt P39961)      PBM E-score    0.345
13    AGGCGGTA  Yer184c (UniProt P39961)      PBM E-score   -0.135
14    CAAGCCGG  Yer184c (UniProt P39961)      PBM E-score    0.327
15    CTGCCGAC  Yer184c (UniProt P39961)      PBM E-score   0.0291
16    CAAGCCTG  Yer184c (UniProt P39961)      PBM E-score   -0.271
17    ACTCCGAA  Yer184c (UniProt P39961)      PBM E-score    0.241
18    ATAGTCGA  Yer184c (UniProt P39961)      PBM E-score   0.0238
19    ACCGGCCG  Yer184c (UniProt P39961)      PBM E-score    0.413
20    ATGCCGCA  Yer184c (UniProt P39961)      PBM E-score    0.124
21    GATAGCGC  Yer184c (UniProt P39961)      PBM E-score   -0.051
22    CCGCGGAG  Yer184c (UniProt P39961)      PBM E-score    0.333
23    CCCGGCCG  Yer184c (UniProt P39961)      PBM E-score    0.371
24    CTTCCGAA  Yer184c (UniProt P39961)      PBM E-score     0.39
25    ATAAGATC  Yer184c (UniProt P39961)      PBM E-score  -0.0275
26    GGGCGGTA  Yer184c (UniProt P39961)      PBM E-score  -0.0752
27    ACTGCCTC  Yer184c (UniProt P39961)      PBM E-score   -0.229
28    GACTGCCC  Yer184c (UniProt P39961)      PBM E-score   -0.309
29    ACTCCGAG  Yer184c (UniProt P39961)      PBM E-score    0.233
30    CGGGCCCA  Yer184c (UniProt P39961)      PBM E-score   0.0473
31    ATGAACAA  Yer184c (UniProt P39961)      PBM E-score    0.154
32    ACCGGCCT  Yer184c (UniProt P39961)      PBM E-score   0.0901
33    ATAATATG  Yer184c (UniProt P39961)      PBM E-score    0.132
34    ATGCCGTC  Yer184c (UniProt P39961)      PBM E-score   0.0209
35    CGCCGGGC  Yer184c (UniProt P39961)      PBM E-score    0.286
36    AGAAATAA  Yer184c (UniProt P39961)      PBM E-score     0.19
37    AATGAGAT  Yer184c (UniProt P39961)      PBM E-score    0.127
38    CCGCGGTC  Yer184c (UniProt P39961)      PBM E-score    0.205
39    GAAGCCGA  Yer184c (UniProt P39961)      PBM E-score    0.287
40    ATTCCGAC  Yer184c (UniProt P39961)      PBM E-score    0.211
41    GTTAGCTA  Yer184c (UniProt P39961)      PBM E-score   -0.119
42    AAAGCCGC  Yer184c (UniProt P39961)      PBM E-score    0.188
43    AGGAAAAA  Yer184c (UniProt P39961)      PBM E-score    0.168
44    ACTCTCGA  Yer184c (UniProt P39961)      PBM E-score  -0.0924
45    TAAGCCGA  Yer184c (UniProt P39961)      PBM E-score    0.369
46    ATAGTGAC  Yer184c (UniProt P39961)      PBM E-score  -0.0492
47    AGTAACGG  Yer184c (UniProt P39961)      PBM E-score    0.101
48    ATAGAGGG  Yer184c (UniProt P39961)      PBM E-score   -0.135
49    CCGCGCGC  Yer184c (UniProt P39961)      PBM E-score    0.154
50    ATATGAAT  Yer184c (UniProt P39961)      PBM E-score    0.156
51    GCCTTAAC  Yer184c (UniProt P39961)      PBM E-score   -0.171
52    CCCGGCCC  Yer184c (UniProt P39961)      PBM E-score    0.161
53    ACTCTGTC  Yer184c (UniProt P39961)      PBM E-score   -0.139
54    AGCCGGGA  Yer184c (UniProt P39961)      PBM E-score    0.311
55    CGGAAAAG  Yer184c (UniProt P39961)      PBM E-score    0.248
56    AAGGCGTG  Yer184c (UniProt P39961)      PBM E-score   -0.149
57    CCAGCCGA  Yer184c (UniProt P39961)      PBM E-score    0.205
58    ATGCCGGC  Yer184c (UniProt P39961)      PBM E-score    0.399
59    AAGATAGT  Yer184c (UniProt P39961)      PBM E-score    0.108
60    GAACACCC  Yer184c (UniProt P39961)      PBM E-score  -0.0175
61    ATTCTCGA  Yer184c (UniProt P39961)      PBM E-score   0.0246
62    CAAACAGC  Yer184c (UniProt P39961)      PBM E-score  -0.0581
63    CTGCCGTC  Yer184c (UniProt P39961)      PBM E-score   -0.066
64    CTCCAAGC  Yer184c (UniProt P39961)      PBM E-score   -0.181
65    AAATGCTT  Yer184c (UniProt P39961)      PBM E-score   0.0617
66    AAAGCCGG  Yer184c (UniProt P39961)      PBM E-score    0.351
67    AATAGCGG  Yer184c (UniProt P39961)      PBM E-score   0.0178
68    ACTAGGAA  Yer184c (UniProt P39961)      PBM E-score   -0.177
69    ATTCCGAA  Yer184c (UniProt P39961)      PBM E-score    0.388
70    CGCCACCG  Yer184c (UniProt P39961)      PBM E-score   -0.156
71    ACTTTTTG  Yer184c (UniProt P39961)      PBM E-score    0.154
72    CAAAATGA  Yer184c (UniProt P39961)      PBM E-score   0.0065
73    CTCTCATA  Yer184c (UniProt P39961)      PBM E-score  -0.0704
74    GGCCGGGA  Yer184c (UniProt P39961)      PBM E-score    0.292
75    AGCCGGGC  Yer184c (UniProt P39961)      PBM E-score    0.172
76    CGCCGGGA  Yer184c (UniProt P39961)      PBM E-score    0.312
77    ACGAATAG  Yer184c (UniProt P39961)      PBM E-score  -0.0621
78    CGGGCCCG  Yer184c (UniProt P39961)      PBM E-score    0.351
79    CAAGCCGA  Yer184c (UniProt P39961)      PBM E-score    0.324
80    CACATTCG  Yer184c (UniProt P39961)      PBM E-score    0.097
81    ATGCCGGA  Yer184c (UniProt P39961)      PBM E-score     0.36
82    AACTTTCA  Yer184c (UniProt P39961)      PBM E-score    0.122
83    CTTGGTCC  Yer184c (UniProt P39961)      PBM E-score   0.0693
84    GGGCCGGA  Yer184c (UniProt P39961)      PBM E-score    0.244
85    CTTCCAAA  Yer184c (UniProt P39961)      PBM E-score   0.0435
86    CTAATAAA  Yer184c (UniProt P39961)      PBM E-score   0.0623
87    CCGCGCGG  Yer184c (UniProt P39961)      PBM E-score    0.386
88    ATGCCAGA  Yer184c (UniProt P39961)      PBM E-score   0.0873
89    GGAGTGCC  Yer184c (UniProt P39961)      PBM E-score   0.0423
90    ATTCCGAG  Yer184c (UniProt P39961)      PBM E-score    0.353
